Source of measurements: the NIST ThermoML archive (doi:10.1021/je060139a)

test: xn = mol fraction of the nth substance listed; conditions: 298.18 K, Wilhelmy plate method, x1 = 0.85
Measured surface tension liquid-gas by item
test-readout: surface tension liquid-gas (mN/m)

compound="CC(=O)OCc1ccccc1 [benzyl ethanoate] + CCO" test_result=33.92
compound="COC(=O)c1ccccc1 [methyl benzoate] + CCO" test_result=34.2
compound="CCOC(=O)c1ccccc1O [ethyl 2-hydroxybenzoate] + CCO" test_result=33.18
compound="CCOC(=O)CC(C)C [ethyl 3-methylbutanoate] + CCO" test_result=23.35
compound="CCOC(=O)CC(C)=O [ethyl 3-oxobutanoate] + CCO" test_result=31.01
compound="CCC(=O)OCc1ccccc1 [benzyl propanoate] + CCO" test_result=32.5

* * *

assay: refractive index (Na D-line) (dimensionless); xn = mol fraction of the nth substance listed; conditions: 308.15 K; 100.5 kPa; Liquid; Standard Abbe refractometry; x1 = 0.05
test-readout: refractive index

compound="CC(=O)OCc1ccccc1 [benzyl ethanoate] + CCO" test_result=1.37164
compound="CCC(=O)OCc1ccccc1 [benzyl propanoate] + CCO" test_result=1.37266
compound="CCOC(=O)c1ccccc1O [ethyl 2-hydroxybenzoate] + CCO" test_result=1.37478
compound="CCOC(=O)CC(C)C [ethyl 3-methylbutanoate] + CCO" test_result=1.35942
compound="CCOC(=O)CC(C)=O [ethyl 3-oxobutanoate] + CCO" test_result=1.3612
compound="COC(=O)c1ccccc1 [methyl benzoate] + CCO" test_result=1.37154

* * *

experiment: refractive index (Na D-line) (dimensionless); xn = mol fraction of the nth substance listed; settings: 288.15 K; 100.5 kPa; Liquid; Standard Abbe refractometry; x1 = 0.45
Numbers after ± are expanded uncertainties.
Recorded measurements of refractive index, one per entry
test-readout: refractive index

compound="CCC(=O)OCc1ccccc1 [benzyl propanoate] + CCO" test_result="1.45858 ± 0.00032"
compound="CCOC(=O)c1ccccc1O [ethyl 2-hydroxybenzoate] + CCO" test_result="1.47375 ± 0.00032"
compound="COC(=O)c1ccccc1 [methyl benzoate] + CCO" test_result="1.4645 ± 0.00033"
compound="CCOC(=O)CC(C)=O [ethyl 3-oxobutanoate] + CCO" test_result="1.4009 ± 0.0003"
compound="CC(=O)OCc1ccccc1 [benzyl ethanoate] + CCO" test_result="1.45868 ± 0.00032"
compound="CCOC(=O)CC(C)C [ethyl 3-methylbutanoate] + CCO" test_result="1.38748 ± 0.00033"

* * *

assay: refractive index (Na D-line) (dimensionless); settings: 318.15 K; 101.33 kPa; Liquid; Standard Abbe refractometry
test-readout: refractive index

compound="CCOC(=O)CC(C)=O [ethyl 3-oxobutanoate]" test_result=1.408
compound="CCC(=O)OCc1ccccc1 [benzyl propanoate]" test_result=1.48611
compound="CC(=O)OCc1ccccc1 [benzyl ethanoate]" test_result=1.49064
compound="CCOC(=O)CC(C)C [ethyl 3-methylbutanoate]" test_result=1.38458
compound="CCOC(=O)c1ccccc1O [ethyl 2-hydroxybenzoate]" test_result=1.51116
compound="COC(=O)c1ccccc1 [methyl benzoate]" test_result=1.50514

* * *

assay: refractive index (Na D-line) (dimensionless); xn = mol fraction of the nth substance listed; details: 318.15 K; 100.5 kPa; Liquid; Standard Abbe refractometry; x1 = 0.25
± gives the expanded uncertainty stated by the source.
Documented refractive index across a set of molecules
test-readout: refractive index

molecule="CC(=O)OCc1ccccc1 [benzyl ethanoate] + CCO" test_result="1.41487 ± 0.00032"
molecule="CCOC(=O)c1ccccc1O [ethyl 2-hydroxybenzoate] + CCO" test_result="1.4258 ± 0.00032"
molecule="CCC(=O)OCc1ccccc1 [benzyl propanoate] + CCO" test_result="1.41651 ± 0.00032"
molecule="CCOC(=O)CC(C)C [ethyl 3-methylbutanoate] + CCO" test_result="1.36679 ± 0.00032"
molecule="CCOC(=O)CC(C)=O [ethyl 3-oxobutanoate] + CCO" test_result="1.3755 ± 0.0003"
molecule="COC(=O)c1ccccc1 [methyl benzoate] + CCO" test_result="1.41686 ± 0.00032"
